- Tested on: CAKI-1 renal
- Method Notes: NCI tumour cell line growth inhibition, 48 h
Recorded TGI for the following compounds

Compound	Measured
C=CCN1C(=O)N/C(=C\c2ccc(Cl)cc2)C1=O	> 100 µM
CCC12CC[C@H](C#N)N3CCc4c(n(c5ccccc45)C(=O)C1)C32 (some centres undefined)	34.3 µM
O[C@H]1[C@H]2[C@H](O)CCCN2C[C@H]1O	> 100 µM
CCOC(=O)c1c(-c2ccc(Cl)cc2)c(C#N)c(=S)n(C2OC(CO)C(O)C(O)C2O)c1-c1ccccc1 (centres undefined)	82.6 µM
CC(C)C1=CC(=O)C(C)(C2=NC(C)(C)CO2)c2ccccc21 (centres undefined)	> 100 µM
O=C1CC(n2cccc2)c2cc(Br)sc21 (centres undefined)	> 100 µM

# input If you can, please state the reported TGI value of COc1cc(-c2ccc(-[n+]3nc(-c4ccc([N+](=O)[O-])cc4)nn3-c3ccc([N+](=O)[O-])cc3)c(OC)c2)ccc1-[n+]1nc(-c2ccc([N+](=O)[O-])cc2)nn1-c1ccc([N+](=O)[O-])cc1 .
# output 48.5 µM

# input If you can, please state the reported TGI value of COc1ccc2c(c1)C(=O)c1c-2c(N2CCN(C(=O)CN(C)C)CC2)nc2ccccc12 .
# output > 100 µM

# input If you can, please state the reported TGI value of CC1=C(C#N)C(=O)N(/N=C/c2ccc(Cl)cc2)C(=O)/C1=c1\o/c(=C2/C(=O)N(/N=C/c3ccc(Cl)cc3)C(=O)C(C#N)=C2C)c2nccnc12 .
# output > 100 µM

# input If you can, please state the reported TGI value of COC(=O)c1cccc(C)c1C1CN=NC12Cc1c(ccc(C)c1C)C2=O (centres undefined) .
# output > 100 µM

# input If you can, please state the reported TGI value of Cc1cc(C)n(C(=O)C(C)Sc2nnc(SC(C)C(=O)n3nc(C)cc3C)s2)n1 (centres undefined) .
# output > 100 µM

# input If you can, please state the reported TGI value of N#Cc1c(SCc2ccccc2)nc2[nH]c(=S)[nH]c(=S)c2c1-c1ccco1 .
# output > 100 µM

# input If you can, please state the reported TGI value of CCOC(=O)Cc1nc2nn(Cc3ccccc3)cc2c(=O)[nH]1 .
# output > 100 µM

# input If you can, please state the reported TGI value of Cc1nc(Cl)c(C)c(Cl)n1 .
# output 0.0695 µM

# input If you can, please state the reported TGI value of CC(C(O)c1ccccc1)N(C)/N=N/c1nc2c([nH]1)c(=O)n(C)c(=O)n2C (centres undefined) .
# output > 100 µM

# input If you can, please state the reported TGI value of NC(=S)N/N=C1\C(=O)N(c2cccc([N+](=O)[O-])c2)C(=O)C1C(=O)Nc1cccc([N+](=O)[O-])c1 (centres undefined) .
# output > 100 µM

# input If you can, please state the reported TGI value of Cn1cc(C(=O)/C(Cl)=C(\Cl)C(=O)O)c2ccccc21 .
# output > 100 µM

# input If you can, please state the reported TGI value of NC(=Nc1ccc(Cl)c(Cl)c1)c1ccccc1N .
# output > 100 µM

# input If you can, please state the reported TGI value of CCCCC1(OC(=O)CCC(=O)O)CCC2(CCC(C)C(C/C=C(C)/C=C/C(O)C(C)/C=C/C(=O)O)O2)OC1CC/C(C)=C/C(=O)O (centres undefined) .
# output 15.3 µM
